These measurements were taken from patent US9447100B2.

# melting point annotations

In plain terms, CCOC(=O)c1cnn2c1NC(c1ccc3ccccc3c1)CC2C(F)(F)F (stereo not shown) has a documented melting point of 120 to 122 °C

In plain terms, CCC(CC)(NC(=O)c1cnn2c1NC(c1ccccc1)CC2(C)C)C1CCCCC1 (stereo not shown) has a documented melting point of 130 to 131 °C

In plain terms, COc1ccc(C2CC(C)(C)n3ncc(C(=O)O)c3N2)cc1 (stereo not shown) has a documented melting point of 196 to 197 °C

Next:
In plain terms, CCCC1(NC(=O)c2cnn3c2NC(c2ccccc2)CC3(C)C)CCCCC1 (stereo not shown) has a documented melting point of 152 to 153 °C

In plain terms, CCC(CC)(NC(=O)c1cnn2c1NC(c1ccccc1)CC2C(F)(F)F)c1ccccc1 (stereo not shown) has a documented melting point of 165 to 166 °C

In plain terms, CCC(CC)(NC(=O)c1cnn2c1NC(c1ccccc1)CC2(C)C)c1ccc(C(=O)OC)cc1 (stereo not shown) has a documented melting point of 180 to 181 °C

In plain terms, CC1(C)CC(c2ccccc2Cl)Nc2c(C(=O)O)cnn21 (stereo not shown) has a documented melting point of 167 to 168 °C

In plain terms, CCC(CC)(NC(=O)c1c(C)nn2c1NC(c1ccccc1)CC2(C)C)c1ccc(C(=O)O)cc1 (stereo not shown) has a documented melting point of 244 to 246 °C

* * *

Where a name gives a salt, the structure may show the parent alone.
measuredParameter: melting point

Sample records with melting point:
In plain terms, COC(=O)C1(NC(=O)c2cnn3c2NC(c2ccccc2)CC3(C)C)CCCCC1 (stereo not shown) [Example 624] has a documented melting point of 184 to 185 °C

In plain terms, CCC(CC)(NC(=O)c1cnn2c1NC(c1ccccc1)CC2(C)C)c1ccc(SC)cc1 (stereo not shown) [Example 832] has a documented melting point of 177 to 178 °C

In plain terms, CC(C)(NC(=O)c1cnn2c1NC(c1ccccc1)CC2(C)C)c1ccc(Cl)cc1 (stereo not shown) (as salt: HCl) [Example 791] has a documented melting point of 207 to 208 °C

In plain terms, COc1ccccc1C1CC(C(F)(F)F)n2ncc(C(=O)NC34CC5CC(CC(C5)C3)C4)c2N1 (stereo not shown) [Example 279] has a documented melting point of 238 to 239 °C

In plain terms, CCC(CC)(NC(=O)c1cnn2c1NC(c1ccccc1)CC2(C)C)c1ccc(CCC(=O)O)cc1 (stereo not shown) [Example 749] has a documented melting point of 240 to 241 °C

Next:
In plain terms, CCC(CC)(NC(=O)c1c(C)nn2c1NC(c1ccccc1)CC2(C)C)c1ccc(Cl)cc1 (stereo not shown) (as salt: HCl) [Example 723] has a documented melting point of 180 to 181 °C

In plain terms, CCC(CC)(NC(=O)c1c(C)nn2c1NC(c1ccccc1)CC2(C)C)c1ccc(N(C)C)cc1 (stereo not shown) (as salt: HCl) [Example 821] has a documented melting point of 140 to 141 °C

* * *

Structures can show the parent of a compound that is named as a salt.
# melting point annotations

In plain terms, CCC(CC)(NC(=O)c1c(C)nn2c1N[C@@H](c1ccccc1)CC2(C)C)c1ccc(I)cc1 (as salt: HCl) has a documented melting point of 179 to 180 °C

In plain terms, CCC(CC)(NC(=O)c1cnn2c1NC(C1CCCCC1)CC2(C)C)c1ccc(C(F)(F)F)cc1 (stereo not shown) has a documented melting point of 178.7 to 178.9 °C

In plain terms, COc1ccccc1C1CC(C)(C)n2ncc(C(=O)NC34CC5CC(CC(C5)C3)C4)c2N1 (stereo not shown) has a documented melting point of 280 to 282 °C

Next:
In plain terms, CCC(CC)(NC(=O)c1cnn2c1NC(c1ccccc1)CC2(C)C)c1cccc(Cl)c1 (stereo not shown) has a documented melting point of 195 to 196 °C

* * *

Structures can show the parent of a compound that is named as a salt.
measuredParameter: melting point

Sample records with melting point:
In plain terms, Cc1ccc(C(C)(C)NC(=O)c2cnn3c2NC(c2ccccc2)CC3(C)C)cc1 (stereo not shown) (as salt: HCl) has a documented melting point of 150 to 151 °C

In plain terms, CCC(CC)(NC(=O)c1cnn2c1NC(c1ccccc1)CC2(C)C)c1ccc(OCC(=O)O)cc1 (stereo not shown) has a documented melting point of 213 to 214 °C

In plain terms, O=C(NC12CC3CC(CC(C3)C1)C2)c1cnn2c1NC(c1ccccc1)CC21CCCC1 (stereo not shown) has a documented melting point of 259 to 261 °C

In plain terms, CCC(CC)(Cc1ccc(OC)cc1)NC(=O)c1cnn2c1NC(c1ccccc1)CC2(C)C (stereo not shown) has a documented melting point of 185 to 186 °C

In plain terms, CC(C)C(NC(=O)c1cnn2c1NC(c1ccccc1)CC2(C)C)C(C)C (stereo not shown) has a documented melting point of 168 to 169 °C

Next:
In plain terms, CCC(CC)(NC(=O)c1cnn2c1N(Cc1ccccc1)C(c1ccccc1)CC2(C)C)c1ccc(C)cc1 (stereo not shown) has a documented melting point of 142 to 143 °C

In plain terms, Cc1nn2c(c1C(=O)O)NC(c1ccc(F)cc1)CC2(C)C (stereo not shown) has a documented melting point of 173 to 174 °C

In plain terms, CC(NC(=O)c1cnn2c1N[C@H](c1ccccc1)C[C@@H]2C(F)(F)F)C(=O)c1ccccc1 (stereo in doubt) [Example 290] has a documented melting point of 271 to 272 °C

In plain terms, CC1(C)CC(c2ccccc2)Nc2c(C(=O)NC(C3CCCCC3)C3CCCCC3)cnn21 (stereo not shown) has a documented melting point of 187 to 188 °C

In plain terms, CCC1(CC)CC(c2ccccc2)Nc2c(C(=O)O)cnn21 (stereo not shown) has a documented melting point of 158 to 160 °C

In plain terms, CC1(C)CC(c2ccccc2)Nc2c(C(=O)NC34CC5CC(CC(C5)C3)C4)cnn21 (stereo not shown) has a documented melting point of 235 to 236 °C

In plain terms, CC1(C)C[C@@H](c2ccccc2)Nc2c(C(=O)NC34CC5CC(CC(C5)C3)C4)cnn21 has a documented melting point of 226 to 227 °C

In plain terms, CCC1(CC)C[C@H](OCc2ccccc2)CN1C(=O)c1cnn2c1N[C@H](c1ccccc1)CC2(C)C has a documented melting point of 116 to 118 °C

In plain terms, CCC(CC)(NC(=O)c1c(SC)nn2c1NC(c1ccccc1)CC2(C)C)c1ccc(Cl)cc1 (stereo not shown) (as salt: HCl) has a documented melting point of 115 to 117 °C

In plain terms, CCC(CC)(NC(=O)c1c(C)nn2c1N[C@@H](c1ccccc1)CC2(C)C)c1ccc(C)c(Cl)c1 (as salt: HCl) has a documented melting point of 129 to 130 °C

In plain terms, CC1(C)CC(c2ccccc2)Nc2c(C(=O)N(Cc3ccccc3)Cc3ccccc3)cnn21 (stereo not shown) has a documented melting point of 206 to 207 °C

* * *

# melting point annotations

Sample records with melting point:
In plain terms, CCC(C#N)NC(=O)c1cnn2c1N[C@H](c1ccccc1)C[C@@H]2C(F)(F)F (stereo in doubt) [Example 283] has a documented melting point of 180 to 181 °C

In plain terms, CCC(CC)(NC(=O)c1cnn2c1NC(c1ccccc1)CC2(C)C)c1cc(-c2ccc(F)cc2)n(C)n1 (stereo not shown) has a documented melting point of 218 to 219 °C

In plain terms, CC1(C)CC(c2ccccc2)Nc2c(C(=O)NC(c3ccc(Cl)cc3)c3ccc(Cl)cc3)cnn21 (stereo not shown) has a documented melting point of 180 to 181 °C

Next:
In plain terms, CCC(CC)(Cc1ccc(Cl)cc1)NC(=O)c1cnn2c1NC(c1ccccc1)CC2(C)C (stereo not shown) has a documented melting point of 156 to 157 °C

* * *

# melting point annotations
Counter-ions that a name gives are not always drawn.

In plain terms, O=C(NC12CC3CC(CC(C3)C1)C2)c1cnn2c1NC(c1cccc(Cl)c1)CC2C(F)(F)F (stereo not drawn) [Example 282] has a documented melting point of 246 to 247 °C

In plain terms, COc1cccc(C2CC(C)(C)n3nc(C)c(C(=O)O)c3N2)c1 (stereo not drawn) [Example 947] has a documented melting point of 151 to 152 °C

In plain terms, CCC(CC)(NC(=O)c1c(OCCO)nn2c1NC(c1ccccc1)CC2(C)C)c1ccc(C)cc1 (stereo not drawn) [Example 975] has a documented melting point of 115 to 117 °C

In plain terms, Cc1nn2c(c1C(=O)O)NC(c1ccccc1)CC2(C)C (single isomer, unassigned; (+)) [Example 1020] has a documented melting point of 190 to 192 °C

In plain terms, CCC(CC)(NC(=O)c1c(C)nn2c1NC(c1ccccc1F)CC2(C)C)c1ccccc1 (stereo not drawn) (as salt: HCl) [Example 840] has a documented melting point of 160 to 162 °C

In plain terms, CCc1nn2c(c1C(=O)NC(CC)(CC)c1ccc(Cl)cc1)NC(c1ccccc1)CC2(C)C (stereo not drawn) [Example 758] has a documented melting point of 183 to 184 °C

Next:
In plain terms, CCC(CC)(NC(=O)c1cnn2c1NC(c1ccccc1F)CC2(C)C)c1ccc(C(F)(F)F)cc1 (stereo not drawn) [Example 675] has a documented melting point of 200.9 to 201 °C

In plain terms, CC1(C)CC(c2ccccc2)Nc2c(C(=O)NC(c3ccc(C(F)(F)F)cc3)(C3CCCCC3)C3CCCCC3)cnn21 (stereo not drawn) [Example 412] has a documented melting point of 146 to 147 °C

In plain terms, CC(NC(=O)c1cnn2c1NC(c1ccc3ccccc3c1)CC2C(F)(F)F)C1C2CC3CC(C2)CC1C3 (stereo not drawn) [Example 91] has a documented melting point of 94 to 95 °C

In plain terms, CCC(CC)(NC(=O)c1cnn2c1N[C@@H](c1ccccc1)CC2(C)C)c1ccc(SC)cc1 [Example 1067] has a documented melting point of 151 to 152 °C

In plain terms, CCOC(=O)CCCCOc1ccc(C(CC)(CC)NC(=O)c2cnn3c2NC(c2ccccc2)CC3(C)C)cc1 (stereo not drawn) [Example 817] has a documented melting point of 120 to 121 °C
